- Tested on: MS2 coat protein
- procedure-summary: apparent KD of MS2 coat protein; higher = weaker reporter binding
- condition: Eterna round: R107; input ligand: theophylline 20 uM
Recorded measurements of apparent KD of MS2 coat protein, one per entry
Give just the numeric value; nM need not be written.

Example cases with answers are listed next.
sequence-string	units	apparent KD of MS2 coat protein
AUGUCCUAAACGGCCGCCACUUACAUGAGGAUCACCCAUGUUUACCGAUAUGGUUGUUGCUUUCCAAGGACCGGGUUUAAUCUGC [theeternabot_exclusion_MS2_Trp_B_49]	nM	14.9
GCACAAGAUGGAAGGAGCGCUGGAAAAGGUCACAUGAGGAUCACCCAUGUUCUCCGAACCGAGCAGGUAGGUCGCUAUCUUGUGC [#09 Same State - Arginine B]	nM	59.9

Task: Query apparent KD of MS2 coat protein for CAGCACAUGAGGAUCACCCAUGUGAGGGAUACCAGCUCAGGCGUGGGCCCUUGGCAGCUCUCUGGCUGACGAAAGUCAGCCUGUG [#20 SameState-TheophyllineA]
Output: 24.2

Task: Query apparent KD of MS2 coat protein for GGAGCUACGUCGGCCGCCACUAGCGGGUAUUGCGUGUACAUGAGGAUCACCCAUGUAAUACGGCCUAGGACCGGGACGUAGCUCC [Raven]
Output: 19.1

Task: Query apparent KD of MS2 coat protein for AUAAGUAAUGUUACGUGUUUAAUUGCAGAUACCAGACUAUACGUUGUCCCUUGGCAGCUGAAUUACAUGAGGAUCACCCAUGUUG [JR_ExcTheophyA_Sub005]
Output: 28.5

Task: Query apparent KD of MS2 coat protein for AAAAUCCUACCUGAGGAUCACCCUGGUGAAGGAGCGCCCGAAAGGGCAGGUAGGUCGCACCUGAGGAUCACCCGGGUAACCUAAA [ArgEX 14 #DoubleMS2 #OpenEnded #AlternativeMS2]
Output: 139

Task: Query apparent KD of MS2 coat protein for AUACAUGAGGAUCACCCAUGUCAUUCAGAAGGAGCGUCAUUUUAGACAGGUAGGUCGCUGUUAUUGGUAUUAUACUUUAUGUUUA [JR_ExcArginiA_Sub024]
Output: 34.9

====

- Tested on: MS2 coat protein
- procedure-summary: apparent KD of MS2 coat protein; designed switch direction (-1 OFF switch, 1 ON switch): -1; higher = weaker reporter binding
- condition: input ligand: FMN 200 uM
readout-label: apparent KD of MS2 coat protein
In your response, the unit should come after the numeric value.

sequence-string	apparent KD of MS2 coat protein
UAUUGCAAGCGAAGAUCCCACAUGAGGAUCACCCAUGUGCUCGUCUUAUAAGGUACUGUGACGAUAGUCACGGUACC [Mat - Sensor, turn-off var - Eli Mod - D76] (Eterna round: R97, puzzle: Sensor, turn-off variant 1)	34 nM
GAGCCAACAGGAUAUACAUGAGGAUCACCCAUGUGAAUUCGCUACACAGGGAUGAACAGUAGAAGGGUUGGUAU [Eternabot (Original) Solution 49] (Eterna round: R97, puzzle: Exclusion 3)	165 nM

Task: Query apparent KD of MS2 coat protein for UUGAACCCGGUAGGAUAUAUUGUGGGCAAACAUGGAACAACAUGAGGAUCACCCAUGUAAUUUAGGUAGAAGGGCCAAAAGAUU [Excl-NG2-LRO06] (Eterna round: R96, puzzle: Exclusion NG 2)
Output: 72.1 nM

Task: Query apparent KD of MS2 coat protein for ACAUGAGGAUCACCCAUGUCGAGUACAUGAGGAUCACCCAUGUAGGAUAUGGUUCGCUUUGCGUGCUAGAAGGAUAUGUGUUGA [salish99_ExNG3_r04_510] (Eterna round: R96, puzzle: Exclusion NG 3)
Output: 321 nM

Task: Query apparent KD of MS2 coat protein for CGCUGGACAGGAUAUGUUCUUGGGCACUUGAGGAUCACCCAAGUCAUCAAAAACUCAGGCACAGAAGGGUUUAUGG [salish99_ex5_r4_019] (Eterna round: R97, puzzle: Exclusion 5)
Output: 76 nM

Task: Query apparent KD of MS2 coat protein for ACGCAUUGCCUUUGGUAGUGCGUAACAUGAGGAUCACCCAUGUAGGAUAUGGUAGGCUUUGCUUACCAGAAGGACAUUGUUGAU [Omei mod of JL ENG3 1.03] (Eterna round: R96, puzzle: Exclusion NG 3)
Output: 220 nM

Task: Query apparent KD of MS2 coat protein for UAAUUAAAUGUAGGAUAUCUGCACGUGUAGUGCAGAGAAGGACAUGAGGAUCACCCAUGUAGAUCAAAUUAAAUUAAUUUAAUU [ENG1/5-D3] (Eterna round: R96, puzzle: Exclusion NG 1)
Output: 54 nM

Task: Query apparent KD of MS2 coat protein for CUUUUGUGAGGAUAUUAGUAGUAAAUAAAUUAAAUUACUACUGAGAAGGCACAUGAGGAUCACCCAUGUUCCUC [salish99_ex4_r3_057] (Eterna round: R96, puzzle: Exclusion 4)
Output: 428 nM

Task: Query apparent KD of MS2 coat protein for CAUGGAUGUGAGCCGCAUUACAUGAGGAUCACCCAUGUCAACAAGCUUUUUGCUUGUCUUACGCGGCGGCACCAGAA [Getelexe] (Eterna round: R96, puzzle: Sensor v3, turn-off variant 1)
Output: 13 nM
